System: HT29 colon
Assay: NCI tumour cell line growth inhibition, 48 h
Documented TGI across a set of compounds

A selection of reference data follows.
{"COMPOUND": "COc1ccc(N(C(=O)OC(C)(C)C)[C@@H]2C(C)=C[C@H]([S@@](=O)c3ccc(C)cc3)[C@@H]3C(=O)N(C)C(=O)[C@@H]32)cc1", "MEASUREMENT TARGET": "HT29 colon", "TGI": "45.5 µM"}
{"COMPOUND": "Oc1ccc2ccccc2c1/C=N\\Nc1ccccn1", "MEASUREMENT TARGET": "HT29 colon", "TGI": "> 100 µM"}
{"COMPOUND": "Cn1c2ccccc2n2c(=O)c(-c3ccc(O)cc3)nnc12", "MEASUREMENT TARGET": "HT29 colon", "TGI": "> 100 µM"}

The reported HT29 colon TGI of CC(=O)OCCOCNC(=S)N/N=C(\C)c1ccco1 is > 100 µM

The reported HT29 colon TGI of CC(C)=NN/C(=N\S(=O)(=O)c1cc(Cl)c(Oc2ccc([N+](=O)[O-])cc2Cl)c(Cl)c1)Nc1ccc(Cl)cc1 is > 100 µM

The reported HT29 colon TGI of NC12c3c4cccc3Oc3cccc(c31)Oc1cccc(c12)O4 is > 50 µM

The reported HT29 colon TGI of Cn1c(=O)c(Cc2ccc(F)cc2F)cc2cnc(NC3CCOCC3)nc21 is > 25 µM

The reported HT29 colon TGI of CC(=O)OC(C)(C)C1CCC(C)(C(O)COc2ccc(CCNC(=O)c3ccccc3)cc2)O1 (stereo not given) is > 100 µM

The reported HT29 colon TGI of O=C(CC1C(=O)Nc2ccccc2S1=O)Nc1cccc(Cl)c1 (stereo not given) is > 55.1 µM

The reported HT29 colon TGI of CC(C)(C)CC(C)(C)Cc1ccc(OCCOCC[N+](C)(C)Cc2ccccc2)cc1 is 3.1 µM

----------
Documented TGI across a set of molecules
Tested on: MCF7 breast
Experiment: NCI tumour cell line growth inhibition, 48 h
Where a SMILES comes first, the peptide text is derived from it. The star is where a group is joined. Boc = CC(C)(C)OC(=O)*; OBn = c1ccc(CO*)cc1; Bn = c1ccc(C*)cc1

A selection of reference data follows.
{"MOLECULE": "O=C(/C=N/O)c1c(-c2ccccc2)[nH]c(-c2ccccc2)c1-c1ccccc1", "MEASUREMENT TARGET": "MCF7 breast", "MEASURED ATTRIBUTE": "TGI", "REPORTED RESULT": "39.7 µM"}
{"MOLECULE": "O=C1/C(=C/c2ccc(O)cc2)CCC1CNc1ccc(Cl)cc1 (centres undefined)", "MEASUREMENT TARGET": "MCF7 breast", "MEASURED ATTRIBUTE": "TGI", "REPORTED RESULT": "6.82 µM"}
{"MOLECULE": "CC(C)(C)c1ccc(-c2nnc(SCc3ccc(Cl)cc3)n2-c2cccc(C(F)(F)F)c2)cc1", "MEASUREMENT TARGET": "MCF7 breast", "MEASURED ATTRIBUTE": "TGI", "REPORTED RESULT": "> 100 µM"}
{"MOLECULE": "CC(C)C[C@H](NC(=O)[C@@H](Cc1cccc2ccccc12)NC(=O)N1CCOCC1)B(O)O", "MEASUREMENT TARGET": "MCF7 breast", "MEASURED ATTRIBUTE": "TGI", "REPORTED RESULT": "> 52.7 µM"}
{"MOLECULE": "CC(C)CC(NC(=O)C(Cc1ccccc1)NC(=O)C(COCc1ccccc1)NC(=O)OC(C)(C)C)C(=O)OCc1ccccc1 (stereo not drawn) (Boc-Ser(Bn)-Phe-Leu-OBn; configuration not given here)", "MEASUREMENT TARGET": "MCF7 breast", "MEASURED ATTRIBUTE": "TGI", "REPORTED RESULT": "> 100 µM"}
{"MOLECULE": "CCC1=C(C)C2=NC1=CC1=NC(=C(CC)/C1=C/O)C=C1N=C3C(=C1C)C(=O)C(C(=O)OC)C3=C1NC(=C2)C(C)C1CCC(=O)OC (centres undefined)", "MEASUREMENT TARGET": "MCF7 breast", "MEASURED ATTRIBUTE": "TGI", "REPORTED RESULT": "> 100 µM"}
{"MOLECULE": "Cc1ccc(S(=O)(=O)OC2CN3CCC2CC3)cc1 (centres undefined)", "MEASUREMENT TARGET": "MCF7 breast", "MEASURED ATTRIBUTE": "TGI", "REPORTED RESULT": "> 100 µM"}
{"MOLECULE": "COc1ccc(N=NN2CCCC2)cc1", "MEASUREMENT TARGET": "MCF7 breast", "MEASURED ATTRIBUTE": "TGI", "REPORTED RESULT": "78 µM"}

Alright, here's another molecule for you.
Data point: Cc1c2c(nn1-c1ccc(S/N=C3\SCC(=O)CN3c3ccccc3)cc1)-c1ccccc1CC2 ; TGI = 36.7 µM
